System: Danio rerio larvae (5 dpf)
run.description: activity during period 15 (no stimuli), difference vs DMSO (percentage points (treated minus DMSO)); higher = more of the behaviour than the DMSO vehicle control
reported.conditions: 10 µM; exposure time: 3 h pre-incubation + 3 h imaging
measure.name: activity during period 15

Given COc1ccc(Cl)cc1C(=O)NCCc1ccc(S(=O)(=O)NC(=O)NC2CCCCC2)cc1 [Glibenclamide] , state its recorded activity during period 15.
-4.16

Given CC1(C)O[C@@H]2[C@@H](CO[C@@]3(COS(N)(=O)=O)OC(C)(C)O[C@@H]23)O1 [Topiramate] , state its recorded activity during period 15.
3.85

Given Cc1ccccc1C(=O)Nc1ccc(C(=O)N2CCCC(O)c3cc(Cl)ccc32)c(C)c1 (centres undefined) , state its recorded activity during period 15.
-8.09

Given O=C(O)C[C@H](O)C[C@H](O)/C=C/c1c(C2CC2)nc2ccccc2c1-c1ccc(F)cc1 , state its recorded activity during period 15.
-4.44

Ref: the supplement of paper PMC9023506
